# Run Description: Antioxidant activity, oxygen radical absorbance capacity fluorescein (ORAC-FL) method
# Run Parameters: samples 1–10 μM
Endpoint: log10 of ORAC (log10 of the value in trolox equivalents)
Recorded ORAC (log10, trolox equivalents)

Sample answers from the record:
Molecule	Endpoint	Reported Value
COc1cc(/C=C/C(=O)O)ccc1O [Ferulic acid, reference compound]	log10 of ORAC	0.20
C[C@@H](NC(=O)/C=C/c1cccc(Cl)c1)c1nc2c(cnn2C2CCCC2)c(=O)[nH]1 [Compound 1j]	log10 of ORAC	-1.10
COc1ccc(/C=C/C(=O)N[C@H](C)c2nc3c(cnn3C3CCCC3)c(=O)[nH]2)cc1O [Compound 1d]	log10 of ORAC	0.10
C[C@@H](NC(=O)CCCC[C@@H]1CCSS1)c1nc2c(cnn2C2CCCC2)c(=O)[nH]1 [Compound 2]	log10 of ORAC	-0.55
COc1cc(/C=C/C(=O)N[C@H](C)c2nc3c(cnn3C3CCCC3)c(=O)[nH]2)ccc1O [Compound 1a]	log10 of ORAC	0.38
C[C@@H](NC(=O)/C=C/c1ccc(O)c(O)c1)c1nc2c(cnn2C2CCCC2)c(=O)[nH]1 [Compound 1b]	log10 of ORAC	0.40
C[C@@H](NC(=O)/C=C/c1ccc(O)cc1)c1nc2c(cnn2C2CCCC2)c(=O)[nH]1 [Compound 1g]	log10 of ORAC	0.46

// moving on: another record for log10 of ORAC
The reported value for COc1cccc(/C=C/C(=O)N[C@H](C)c2nc3c(cnn3C3CCCC3)c(=O)[nH]2)c1 [Compound 1f] in terms of log10 of ORAC is -0.92
